Could you please report measured activation (% of control) for the items listed next?
measurement.description: enhancers of STAT3 transcriptional signaling – U3A cells, luciferase, luminescence, MLSCN library, primary screen (AID 871);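 also: 0% = background luminescence of wells with medium and substrate only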
run.parameters: IL-6 STAT3-luciferase reporter, at 5.6 µM, hits give high values, 100% = signal with IL-6 EC80 alone
The whole screen tested about 190,000 compounds, of which about 1,800 (0.95%) were called active. For the sample, actives were picked, then their nearest neighbours and some compounds at random.
The answer is to be given in %; state only the numeric part.

Problem: Quick one: activation (% of control) of "CSc1ccccc1C(=O)NCc1ccccc1" ?
Result: 108

Problem: Please look up its activation (% of control): "COc1ccccc1CN(C)c1nnnn1-c1ccccc1"
Result: 99.5

Problem: For the compound "CC(C)NC(=O)C(=O)NCCCOC(C)C" , what activation (% of control) is on record?
Result: 101

Problem: Fill in: activation (% of control) of "Cc1ccc(-n2c(SCC(=O)N/N=C/C=C/c3ccccc3[N+](=O)[O-])nc3ccccc3c2=O)cc1" is ___
Result: 97.7

Problem: Give the measured activation (% of control) of "CC(=O)NC1(c2ccc(F)cc2)CCN(C(=O)c2c(F)cccc2F)CC1" .
Result: 104

Problem: Can you share its activation (% of control)? I mean this compound: "CCOC(=O)c1c(-c2ccccc2)csc1NC(=S)NC(=O)c1ccccc1"
Result: 106

Problem: Which measured activation (% of control) value corresponds to "O=C(CN1CCCC1)N1CCN(c2ccccc2)CC1" ?
Result: 104

Problem: activation (% of control) lookup needed for "Cc1ccc(Cn2c(C)nc3c(c2=O)c2nc4ccccc4nc2n3Cc2ccco2)cc1" , thanks.
Result: 107

Problem: I'd like to know its activation (% of control). The compound in question is "Cc1nc(C)c(C(=O)Nc2cccc(C)c2C)o1"
Result: 105

Problem: Returns the measured activation (% of control) for the input compound. Input: "Cc1cccc(Nc2nc3c(S(=O)(=O)c4ccccc4)nnn3c3ccccc23)c1C"
Result: 105

Problem: Could you share which activation (% of control) value was measured for "O=c1[nH]c(CSc2ncc(-c3ccc(F)cc3)n2Cc2ccco2)nc2ccccc12" ?
Result: 152

Problem: Which measured activation (% of control) value corresponds to CN(C)C(=O)c1ccc2c(c1)C1C3CCC(C3)C1C(c1ccccc1)N2 (stereo not given) ?
Result: 91.5

Problem: Please look up its activation (% of control): "CCCCOc1ccc(NC(=O)[C@@H]2CCCN2C(=O)C2CCN(S(=O)(=O)c3ccc(C)cc3)CC2)cc1"
Result: 102

Problem: Return reported activation (% of control); argument: "CCn1c(SCC(=O)Nc2ccc(S(=O)(=O)Nc3onc(C)c3C)cc2)nnc1-c1ccccc1"
Result: 98.7

Problem: Item under review: O=C(/C=C/c1ccccc1[N+](=O)[O-])NCC1CCCO1 (stereo not given) . Reported activation (% of control)?
Result: 97.5

Problem: Any idea what its activation (% of control) is? The compound is "O=C(CN1CCN(c2ccc(Cl)cc2)CC1)NCc1cccs1"
Result: 99

Problem: Tell me the measured activation (% of control) of "CC(=O)Nc1ccc(Nc2c3ccccc3nc3ccccc23)cc1" , please.
Result: 218

Problem: Look up activation (% of control) for this compound: "Cc1cc(C)c(C#N)c(SCC(=O)Nc2ccccc2)n1"
Result: 85.2

Problem: I am curious: what activation (% of control) value has been reported for "Cc1cc(NC(=O)CSc2nc3cc(Cl)ccc3c(=O)n2Cc2ccco2)no1" ?
Result: 103

Problem: Return reported activation (% of control); argument: "CC(C)CCN1C(=O)c2ccc(C(=O)Nc3cccc(S(N)(=O)=O)c3)cc2C1=O"
Result: 93.1

Problem: Item under review: "CCOC(=O)C1CCN(c2ncnc3c2c(-c2ccccc2)cn3-c2ccc(C)cc2)CC1" . Reported activation (% of control)?
Result: 102

Problem: GET /values?readout=activation (% of control)&item= OC(COc1ccc2ccccc2c1)CN1CCOCC1 (stereo not given)
Result: 159

Problem: Which activation (% of control) value is on record for "CCOc1ccc(-n2c(O)c(/C=N/c3ccnn3Cc3ccncc3)c3ccccc3c2=O)cc1" ?
Result: 105

Problem: State the recorded activation (% of control) for this entry: "CCOC(=O)C1CCN(C(=O)c2oc3ccc(S(=O)(=O)N4CCCCCC4)cc3c2C)CC1"
Result: 89.9

Problem: I am curious: what activation (% of control) value has been reported for "CC(C)CNC(=O)COC(=O)/C=C/c1ccccc1[N+](=O)[O-]" ?
Result: 145

Problem: Give the measured activation (% of control) of "Fc1ccc(COc2cccc(-c3n[nH]c(=S)o3)c2)cc1" .
Result: 102

Problem: Please look up its activation (% of control): "Clc1ccc(-c2nc3ccccn3c2CN2CCSCC2)cc1"
Result: 99.3

Problem: // activation (% of control) lookup, key: "CCN(CC)CCn1c(/N=C/c2cc(Br)ccc2O)nc2ccccc21"
Result: 133

Problem: // activation (% of control) lookup, key: "O=Cc1ccc(OCc2cn3ccccc3n2)cc1"
Result: 101

Problem: Query: activation (% of control); subject: "CCOC(=O)C1CCN(c2ncnc3c2oc2ccc(Br)cc23)CC1"
Result: 141

Problem: Fill in the blank: the reported activation (% of control) of "CC(=O)Nc1ccc(Nc2nc3c(S(=O)(=O)c4ccc(C)c(C)c4)nnn3c3ccccc23)cc1" is ____.
Result: 95.2

Problem: Could you share which activation (% of control) value was measured for "CCOc1ccc2c(=O)c(-c3ccc4c(c3)OCCCO4)c(C)oc2c1" ?
Result: 98.4

Problem: Which activation (% of control) value belongs to "Cc1cc2oc(C(=O)Nc3c(C)n(C)n(-c4ccccc4)c3=O)c(C)c2cc1Cl" ?
Result: 96.5

Problem: Data request, read-out activation (% of control), for NC1=NC(=O)C(Cc2cccc(Cl)c2Cl)S1 (stereo not given)
Result: 98.2

Problem: Give its activation (% of control) value. Item: "COc1cc(NC(=S)NCc2ccco2)c(OC)cc1Cl"
Result: 95.6

Problem: Reported activation (% of control), compound "CCn1c(Cc2ccccc2)nnc1SCc1nc2ccccc2c(=O)[nH]1" : ____
Result: 107

Problem: Any idea what activation (% of control) was measured for "COc1ccc(CC(=O)N[C@@H](CCSC)c2nc3ccccc3[nH]2)cc1" ?
Result: 96.5

Problem: What does the data say about its activation (% of control)? Entry: "CCn1c(NC(=O)c2nn(C)cc2Br)nc2ccccc21"
Result: 96.8

Problem: Sample "CCOC(=O)N1CCN(Cc2nc3ccc([N+](=O)[O-])cc3c(=O)n2-c2cccc(OC)c2)CC1" — what was its activation (% of control)?
Result: 83.3

Problem: Fill in the blank: the reported activation (% of control) of "CCCn1c(C)cc(/C=C(\C#N)C(=O)OCC(=O)Nc2cc(OC)c(OC)c(OC)c2)c1C" is ____.
Result: 103

###

measurement.description: enhancers of STAT3 transcriptional signaling – U3A cells, luciferase, luminescence, MLSCN library, primary screen (AID 871);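 also: 0% = background luminescence of wells with medium and substrate only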
run.parameters: IL-6 STAT3-luciferase reporter, at 5.6 µM, hits give high values, 100% = signal with IL-6 EC80 alone
About 1,800 (0.95%) of roughly 190,000 compounds were called active. The sample holds actives, similar compounds and a random draw of the others, so the mix is not that of the screen.
measurement.name: activation (% of control) (%)
The reply should be a number in %, with the unit left off.

Problem: Quick one: activation (% of control) of "Cc1ccc(Cl)cc1NC(=S)N(CCN(C)C)Cc1cccs1" ?
Result: 96.1

Problem: Entry under review: "COc1cc2c(cc1/C=C1/NC(=O)N(c3ccccc3)C1=O)OCO2" . Reported activation (% of control)?
Result: 88.5

Problem: Given the compound CCOc1ccc(-n2c(SCC(=O)NC3CCS(=O)(=O)C3)nnc2-c2cccnc2)cc1 (stereo not given) , what is its reported activation (% of control)?
Result: 99.7

Problem: Quick one: activation (% of control) for "CC(=O)OCc1cc2cc(C)ccc2[nH]c1=O" ?
Result: 103

Problem: What does the data say about its activation (% of control)? Entry: "COc1ccc(C)cc1NC(=O)c1[nH]c(C)c(C(C)=O)c1C"
Result: 147

Problem: Entry under review: "Cc1ccc(NC(=O)c2cc([N+](=O)[O-])ccc2Cl)c(O)c1" . Reported activation (% of control)?
Result: 138

Problem: What does the data say about its activation (% of control)? Entry: "C[n+]1ccc(/C=C/c2c[nH]c3ccccc23)cc1"
Result: 115

Problem: I would be grateful if you could share the reported activation (% of control) for "COc1cccc(NC(=S)NCc2ccccn2)c1" .
Result: 106

Problem: Would you mind telling me what activation (% of control) value was observed for "Cn1nc(C(F)(F)F)c2cc(C(=O)N3CCOCC3)sc21" ?
Result: 105

Problem: So what does the record say about activation (% of control) for "Cn1c(=NC(=O)c2ccco2)sc2cccc(F)c21" ?
Result: 144

src = PubChem BioAssay AID871
